Target: human MDR1 (P-glycoprotein; P-gp) (Homo sapiens (Human))
Assay: bi-directional MDCK-MDR1 permeability assay
Format: in vitro ADME
Details: efflux ratio B→A/A→B
Source text: The bi-directional assay containing a Mandin Darby canine kidney (MDCK) cell line transfected with human MDR1 gene (P-glycoprotein; P-gp) designed to overexpress the MDR1 efflux transporter, a major efflux transporter at the blood brain barrier (BBB), uses an established method that measures the rate of flux of a compound across polarized cell monolayers. […] The bi-directional MDCK-MDR1 permeability assay can identify and quantify levels of active efflux. […]
Satisfied means recorded MDCK-MDR1 ER is 2 or above; Not satisfied means it is below 2.

// below: answered molecules
MOLECULE | GROUP LABEL
O=c1[nH]nc2c3c(cc(F)cc13)N[C@@H](C1CC1)[C@@H]2c1ccccc1Cl [Compound 0207A] | Not satisfied
C[C@H]1Nc2cc(F)cc3c(=O)[nH]nc(c23)[C@@H]1c1ccc(C#N)cc1F [Compound 0194A] | Satisfied
N#Cc1ccc([C@H]2CNc3cc(F)cc4c(=O)[nH]nc2c34)c(F)c1 [Compound 0187B] | Not satisfied
C[C@@H]1Nc2cc(F)cc3c(=O)[nH]nc(c23)[C@H]1c1ncnn1C [Compound 0201B] | Satisfied

I'd appreciate it if you could say whether CC(=O)N1CCC([C@@H]2Nc3cc(F)cc4c(=O)[nH]nc(c34)[C@H]2c2ncnn2C)CC1 [Compound 0218B] has MDCK-MDR1 ER at least equal to 2.
Satisfied

I'd appreciate it if you could say whether CC[C@@H]1Nc2cc(F)cc3c(=O)[nH]nc(c23)[C@H]1c1ncnn1C [Compound 0202B] has MDCK-MDR1 ER at least equal to 2.
Satisfied

I'd appreciate it if you could say whether C[C@H]1Nc2cc(F)cc3c(=O)[nH]nc(c23)[C@@H]1c1ccc(Cl)cc1F [Compound 0196A] has MDCK-MDR1 ER at least equal to 2.
Not satisfied

I'd appreciate it if you could say whether O=c1[nH]nc2c3c(cc(F)cc13)N[C@@H](C1CCC(F)(F)CC1)[C@@H]2c1ccccc1Cl [Compound 0213B] has MDCK-MDR1 ER at least equal to 2.
Satisfied

----------
Target: human MDR1 (P-glycoprotein; P-gp) (Homo sapiens (Human), UniProt P08183)
Sequence (P08183 whole entry): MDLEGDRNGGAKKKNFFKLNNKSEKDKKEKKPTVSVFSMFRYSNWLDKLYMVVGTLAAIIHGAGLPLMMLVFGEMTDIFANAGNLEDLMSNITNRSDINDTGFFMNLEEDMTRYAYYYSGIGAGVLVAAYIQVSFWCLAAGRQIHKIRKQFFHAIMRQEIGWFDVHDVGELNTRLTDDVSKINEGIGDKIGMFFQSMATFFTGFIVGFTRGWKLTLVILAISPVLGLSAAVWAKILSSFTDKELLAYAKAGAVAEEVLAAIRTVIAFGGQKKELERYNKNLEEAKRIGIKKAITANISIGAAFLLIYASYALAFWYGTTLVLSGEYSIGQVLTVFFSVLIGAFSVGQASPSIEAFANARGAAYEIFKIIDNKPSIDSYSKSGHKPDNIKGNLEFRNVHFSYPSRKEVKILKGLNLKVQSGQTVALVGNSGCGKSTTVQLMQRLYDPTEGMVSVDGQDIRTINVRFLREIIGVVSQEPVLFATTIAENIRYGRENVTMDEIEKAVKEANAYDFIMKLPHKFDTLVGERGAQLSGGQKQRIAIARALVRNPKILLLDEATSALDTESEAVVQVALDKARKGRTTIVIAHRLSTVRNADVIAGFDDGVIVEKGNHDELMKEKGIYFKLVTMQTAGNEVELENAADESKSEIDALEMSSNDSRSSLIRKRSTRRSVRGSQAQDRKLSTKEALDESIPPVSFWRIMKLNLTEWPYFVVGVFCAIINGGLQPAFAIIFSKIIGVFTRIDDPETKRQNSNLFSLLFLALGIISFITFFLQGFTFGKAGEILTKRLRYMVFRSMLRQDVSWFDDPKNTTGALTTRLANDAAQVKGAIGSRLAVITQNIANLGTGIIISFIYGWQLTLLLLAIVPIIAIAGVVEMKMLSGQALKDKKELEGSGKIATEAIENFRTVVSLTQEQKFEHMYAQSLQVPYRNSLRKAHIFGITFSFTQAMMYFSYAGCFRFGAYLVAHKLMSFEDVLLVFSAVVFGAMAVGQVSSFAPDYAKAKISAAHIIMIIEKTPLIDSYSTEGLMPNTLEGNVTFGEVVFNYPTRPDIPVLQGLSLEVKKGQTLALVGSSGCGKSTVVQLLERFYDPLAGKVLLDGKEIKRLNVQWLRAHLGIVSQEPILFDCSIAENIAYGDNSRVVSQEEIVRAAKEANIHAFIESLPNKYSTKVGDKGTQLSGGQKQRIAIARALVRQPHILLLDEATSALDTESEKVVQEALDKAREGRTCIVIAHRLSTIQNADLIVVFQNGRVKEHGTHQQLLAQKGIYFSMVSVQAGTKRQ
Assay: bi-directional MDCK-MDR1 permeability assay
Type: in vitro ADME
Settings: efflux ratio B→A/A→B
In plain terms, low MDCK-MDR1 ER, meaning strictly below 4, gives rule met, and everything else gives rule not met.

// below: answered compounds
COMPOUND | GROUP LABEL
C[C@H]1Nc2cc(F)cc3c(=O)[nH]nc(c23)[C@@H]1c1ccc(C#N)c(F)c1 [Compound 0193A] | rule met
Cn1ncnc1[C@H]1c2n[nH]c(=O)c3cc(F)cc(c23)N[C@@H]1C1CCC(F)(F)CC1 [Compound 0215A] | rule not met
O=c1[nH]nc2c3c(cc(F)cc13)N[C@@H]([C@@H]1CCOC1)[C@@H]2c1ccc(F)cc1F [Compound 0115D] | rule not met
Cn1ncnc1[C@@H]1c2n[nH]c(=O)c3cc(F)cc(c23)N[C@H]1C1CC1 [Compound 0203B] | rule not met
O=c1[nH]nc2c3c(cc(F)cc13)N[C@@H](C1CCOCC1)[C@@H]2c1ccccc1Cl [Compound 0210A] | rule not met

Is the reported MDCK-MDR1 ER for O=c1[nH]nc2c3c(cc(F)cc13)N[C@@H]([C@H]1CCOC1)[C@@H]2c1ccc(F)cc1F [Compound 0115C] strictly below 4?
rule not met

Is the reported MDCK-MDR1 ER for O=c1[nH]nc2c3c(cc(F)cc13)N[C@H]([C@H]1CCOC1)[C@H]2c1ccc(F)cc1F [Compound 0115A] strictly below 4?
rule met

----------
pIC50 data for PARP1 enzyme (Homo sapiens (Human)) follow.
Please keep in mind that pIC50 is minus log10 of the molar concentration; only the number is needed.

Item CN1CCC[C@H]([C@@H]2CNc3cc(F)cc4c(=O)[nH]nc2c34)C1 [Compound 0191C] ; assay system PARP1 enzyme (Homo sapiens (Human)); pIC50 reported as 7.30

Item O=c1[nH]nc2c3c(cc(F)cc13)N[C@H]([C@@H]1CCOC1)[C@H]2c1ccc(F)cc1F [Compound 0115B] ; assay system PARP1 enzyme (Homo sapiens (Human)); pIC50 reported as 6.72

Item O=c1[nH]nc2c3c(cc(F)cc13)NC[C@H]2c1ccc(Cl)cc1F [Compound 0189A] ; assay system PARP1 enzyme (Homo sapiens (Human)); pIC50 reported as 7.10

Item C[C@H]1Nc2cc(F)cc3c(=O)[nH]nc(c23)[C@H]1[C@@H]1CCCN(C)C1 [Compound 0198B] ; assay system PARP1 enzyme (Homo sapiens (Human)); pIC50 reported as 7.41

Item C[C@@H]1Nc2cc(F)cc3c(=O)[nH]nc(c23)[C@@H]1[C@H]1CCCCN1C [Compound 0199C] ; assay system PARP1 enzyme (Homo sapiens (Human)); pIC50 reported as 7.42

Item C[C@H]1Nc2cc(F)cc3c(=O)[nH]nc(c23)[C@@H]1c1ccc(F)cc1F [Compound 0174A] ; assay system PARP1 enzyme (Homo sapiens (Human)); pIC50 reported as 7.44

Item CN1CCC([C@H]2Nc3cc(F)cc4c(=O)[nH]nc(c34)[C@@H]2c2ccc(F)cc2F)CC1 [Compound 0110A] ; assay system PARP1 enzyme (Homo sapiens (Human)); pIC50 reported as 5.85

Item O=c1[nH]nc2c3c(cc(F)cc13)NC[C@@H]2c1ccc(Cl)cc1F [Compound 0189B] ; assay system PARP1 enzyme (Homo sapiens (Human)); pIC50 reported as 7.54

----------
pIC50 data for PARP1 enzyme (Homo sapiens (Human), UniProt P09874) follow.
Please keep in mind that pIC50 is minus log10 of the molar concentration; only the number is needed.

COMPOUND | pIC50
O=c1[nH]nc2c3c(cc(F)cc13)NC[C@H]2c1ccc(Cl)c(F)c1 [Compound 0188A] | 7.55
O=c1[nH]nc2c3c(cc(F)cc13)N[C@H]([C@H]1CCOC1)[C@H]2c1ccccc1Cl [Compound 0121A] | 7.49
CN1CCCC[C@@H]1[C@@H]1CNc2cc(F)cc3c(=O)[nH]nc1c23 [Compound 0192A] | 7.57
CN1CCC([C@H]2Nc3cc(F)cc4c(=O)[nH]nc(c34)[C@H]2c2ccc(F)cc2F)CC1 [Compound 0110B] | 7.35
C[C@@H]1Nc2cc(F)cc3c(=O)[nH]nc(c23)[C@H]1c1ccc(F)cc1F [Compound 0174B] | 8.10

Item N#Cc1ccc(C2c3n[nH]c(=O)c4cc(F)cc(c34)NC2c2c(F)cc(F)cc2F)cc1F (centres unmarked) [0092A; 0092B] ; assay system PARP1 enzyme (Homo sapiens (Human), UniProt P09874); pIC50 reported as 7.89

Item C[C@H]1Nc2cc(F)cc3c(=O)[nH]nc(c23)[C@@H]1c1ccc(Cl)c(F)c1 [Compound 0195A] ; assay system PARP1 enzyme (Homo sapiens (Human), UniProt P09874); pIC50 reported as 7.68

Item C[C@@H]1Nc2cc(F)cc3c(=O)[nH]nc(c23)[C@H]1[C@@H]1CCCCN1C [Compound 0199D] ; assay system PARP1 enzyme (Homo sapiens (Human), UniProt P09874); pIC50 reported as 7.60

----------
Target: human MDR1 (P-glycoprotein; P-gp) (Homo sapiens (Human))
Assay: bi-directional MDCK-MDR1 permeability assay
Format: in vitro ADME
Conditions: human, MDCK-MDR1; efflux ratio B→A/A→B; read-out: MDCK-MDR1 ER
PROPERTY: efflux ratio
Lab note: record just the number, no unit beside it.

Worked examples, 2 compounds total:
COMPOUND | efflux ratio
C[C@@H]1Nc2cc(F)cc3c(=O)[nH]nc(c23)[C@H]1c1ccc(Cl)c(F)c1 [Compound 0195B] | 0.691
O=c1[nH]nc2c3c(cc(F)cc13)NCC2c1ccc(Cl)c(F)c1 (centres unmarked) | 0.522

Next:
Item CN1CCC([C@H]2Nc3cc(F)cc4c(=O)[nH]nc(c34)[C@H]2c2ccc(F)cc2F)CC1 [Compound 0110B] ; assay system human MDR1 (P-glycoprotein; P-gp) (Homo sapiens (Human)); efflux ratio reported as 30.4

----------
IC50 data for PARP1 enzyme (Homo sapiens (Human), UniProt P09874) follow.

Worked examples, 3 molecules total:
MOLECULE | IC50
C[C@H]1Nc2cc(F)cc3c(=O)[nH]nc(c23)[C@@H]1[C@@H]1CCCCN1C [Compound 0199B] | 118 nM
C[C@@H]1Nc2cc(F)cc3c(=O)[nH]nc(c23)[C@H]1c1ccccc1Cl [Compound 0172B] | 18 nM
CN1CCC([C@@H]2Nc3cc(F)cc4c(=O)[nH]nc(c34)[C@H]2c2ccccc2Cl)CC1 [Compound 0116B] | 123 nM

Item CN1CCC[C@@H]([C@H]2CNc3cc(F)cc4c(=O)[nH]nc2c34)C1 [Compound 0191D] ; assay system PARP1 enzyme (Homo sapiens (Human), UniProt P09874); IC50 reported as 35 nM
